Could you please report measured IC50 for the items listed next?
biological target: beta-catenin/TCF4 engagement (Homo sapiens); construct: expressed in transfected cells; host or cells: HEK293; assay: Nano-BRET target engagement assay (B-cat-Halo & TCF4-Luc in HEK293 cells); type: cell-based; conditions: absolute IC50; read-out: NanoBRET Abs IC50
Sequence (P35222 whole entry): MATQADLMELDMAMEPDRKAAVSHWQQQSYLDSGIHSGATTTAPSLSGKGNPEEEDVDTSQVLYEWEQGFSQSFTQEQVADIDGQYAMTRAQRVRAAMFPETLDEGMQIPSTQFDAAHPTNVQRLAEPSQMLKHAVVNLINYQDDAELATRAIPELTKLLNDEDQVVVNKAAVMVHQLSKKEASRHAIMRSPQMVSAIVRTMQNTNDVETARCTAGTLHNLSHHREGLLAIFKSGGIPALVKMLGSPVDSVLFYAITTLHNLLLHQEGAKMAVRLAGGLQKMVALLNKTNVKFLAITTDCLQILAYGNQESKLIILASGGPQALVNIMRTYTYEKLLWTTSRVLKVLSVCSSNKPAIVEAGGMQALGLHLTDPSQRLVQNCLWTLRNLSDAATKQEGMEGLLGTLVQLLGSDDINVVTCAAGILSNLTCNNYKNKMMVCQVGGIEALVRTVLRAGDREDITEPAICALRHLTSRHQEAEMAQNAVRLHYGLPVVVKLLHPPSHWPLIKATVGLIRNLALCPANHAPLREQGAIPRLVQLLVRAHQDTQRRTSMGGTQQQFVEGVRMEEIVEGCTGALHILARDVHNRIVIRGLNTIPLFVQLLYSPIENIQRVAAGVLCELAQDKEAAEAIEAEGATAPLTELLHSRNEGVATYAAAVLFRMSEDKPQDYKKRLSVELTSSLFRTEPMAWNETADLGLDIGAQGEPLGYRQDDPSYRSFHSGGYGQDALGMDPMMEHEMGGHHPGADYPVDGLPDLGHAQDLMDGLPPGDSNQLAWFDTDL

INSERT INTO assay_data (compound, quantity, result) VALUES
  ('COc1cccc(C[C@@H]2NC(=O)[C@H](C)NC(=O)[C@H](C)NC(=O)[C@H](CC(=O)O)NC(=O)[C@H](CC(=O)O)NC(=O)C3(CCCC=CCCCOC(=O)N4CC[C@@](C(=O)N[C@@H](Cc5ccccc5)C(=O)N[C@@H](Cc5csc6ccccc56)C(=O)N[C@@H](CCC(N)=O)C(N)=O)(C4)NC(=O)[C@H](CO)NC2=O)CCCC=CC[C@]2(CCCN2C(C)=O)C(=O)N[C@@H](CC(=O)O)C(=O)N[C@@H](CC2CCCCC2)C(=O)N3)c1 (some centres unmarked) [I-1124]', 'IC50', '> 20 µM');

Quick one: IC50 for CC(=O)N1CCC[C@]12CC=CCCCC1(CCCC=CCCCOC(=O)N3CC[C@@](C(=O)N[C@@H](Cc4ccsc4)C(=O)N[C@@H](Cc4csc5ccccc45)C(=O)N[C@@H](CCC(N)=O)C(N)=O)(C3)NC(=O)[C@H](Cc3c[nH]cn3)NC(=O)[C@H](Cc3ccccc3)NC(=O)[C@H](C)NC(=O)C(C)(C)NC(=O)[C@H]([C@@H](C)O)NC(=O)[C@H](CC(N)=O)NC1=O)NC(=O)[C@H](CC(C)(C)C)NC(=O)[C@H](CC(=O)O)NC2=O (some centres unmarked) [I-2410] ?
> 20 µM
